# Target of assay: human A2A AR (Homo sapiens, UniProt P29274)
# Construct: expressed in transfected cells; host or cells: CHO cells
# Sequence (P29274 whole entry): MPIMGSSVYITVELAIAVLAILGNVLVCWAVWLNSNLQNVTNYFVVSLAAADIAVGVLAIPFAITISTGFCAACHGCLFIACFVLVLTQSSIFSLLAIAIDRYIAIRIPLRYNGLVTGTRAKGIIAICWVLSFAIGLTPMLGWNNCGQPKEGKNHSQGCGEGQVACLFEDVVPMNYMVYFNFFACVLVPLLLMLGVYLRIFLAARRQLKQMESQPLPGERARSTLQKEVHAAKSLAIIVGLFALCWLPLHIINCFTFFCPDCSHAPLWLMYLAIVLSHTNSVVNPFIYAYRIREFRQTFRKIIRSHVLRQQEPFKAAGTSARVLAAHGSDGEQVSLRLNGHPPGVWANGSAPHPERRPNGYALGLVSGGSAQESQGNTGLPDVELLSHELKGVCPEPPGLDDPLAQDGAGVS
# Protocol: Radioligand binding, displacement of [3H]-NECA at hA2A AR in CHO cells
# Experimental context: displacement of specific [3H]-NECA binding, CHO cells, mean ± SEM; read-out: hA2A Ki
Observation type: Ki (nM)
Reply numerically in nM, unit not repeated.

Use the examples below as a reference point.
> print(dat)
                              line.notation  experimental.result
1  Cc1ccc(-c2nc(N)c3nc(Cc4ccccc4Cl)sc3n2)o1                 0.07
2     Nc1nc(-c2ccco2)nc2sc(Cc3ccccc3Cl)nc12                  0.2
3  N#Cc1cccc(-c2nc(N)c3nc(Cc4ccccc4Cl)sc3n2)c1                  6.3

[Q] So what does the record say about Ki for Cc1ccc(-c2nc(N)c3nc(Cc4ccccc4F)sc3n2)o1 ?
[A] 0.26

* * *

Listed below: Ki values for each entry.
# Target of assay: human A2A AR (Homo sapiens)
# Construct: expressed in transfected cells; host or cells: CHO cells
# Protocol: Radioligand binding, displacement of [3H]-NECA at hA2A AR in CHO cells;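 further: competition binding on membranes from CHO cells stably transfected with human A2A receptor, binding curves fitted by nonlinear regression in GraphPad Prism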
# Experimental context: displacement of specific [3H]-NECA binding, CHO cells, mean ± SEM; read-out: hA2A Ki
Reply numerically in nM, unit not repeated.

Use the examples below as a reference point.
> print(dat)
                                   compound  experimental.result
1  COc1ccccc1Cc1nc2c(N)nc(-c3ccc(C)o3)nc2s1 [compound 14]                    2
2  Nc1nc(-c2ccco2)nc2sc(Cc3ccccc3F)nc12 [compound 18]                 0.06
3  Nc1nc(-c2ccccc2)nc2sc(Cc3ccccc3)nc12 [compound 1]                  2.9
4  Nc1nc(-c2ccccc2)nc2sc(Cc3ccccc3Cl)nc12 [compound 6]                  0.4

Would you kindly look at the next entry?
[Q] So what does the record say about Ki for Cc1ccc(-c2nc(N)c3nc(Cc4ccccc4)sc3n2)o1 [compound 5] ?
[A] 0.8

* * *

# Target of assay: hA2B AR (Homo sapiens)
# Construct: expressed in transfected cells; host or cells: CHO cells
# Protocol: Inhibition of NECA-stimulated adenylyl cyclase activity (cAMP) in CHO cells expressing hA2B AR
# Type: cell-based
# Experimental context: mean ± SEM
Observation type: pIC50
pIC50 is a log-scale quantity: -log10 of the concentration expressed in molar.

Use the examples below as a reference point.
> print(dat)
                              line.notation  observation.type  experimental.result
1     COc1ccccc1Cc1nc2c(N)nc(-c3ccco3)nc2s1             pIC50                 5.81
2      Nc1nc(-c2ccco2)nc2sc(Cc3ccccc3F)nc12             pIC50                 6.42
3  Cc1ccc(-c2nc(N)c3nc(Cc4ccccc4Cl)sc3n2)o1             pIC50                 5.05
4   Cc1ccc(-c2nc(N)c3nc(Cc4ccccc4F)sc3n2)o1             pIC50                 5.77
5  COc1ccccc1Cc1nc2c(N)nc(-c3ccc(C)o3)nc2s1             pIC50                 5.62
6       Nc1nc(-c2ccco2)nc2sc(Cc3ccccc3)nc12             pIC50                 6.10

[Q] So what does the record say about pIC50 for Nc1nc(-c2cccc(O)c2)nc2sc(Cc3ccccc3F)nc12 ?
[A] 5.49

[Q] So what does the record say about pIC50 for N#Cc1cccc(-c2nc(N)c3nc(Cc4ccccc4F)sc3n2)c1 ?
[A] 5.82

[Q] So what does the record say about pIC50 for Cc1ccc(-c2nc(N)c3nc(Cc4ccccc4)sc3n2)o1 ?
[A] 5.96

* * *

# Target of assay: hA3 AR (Homo sapiens)
# Sequence (P0DMS8 whole entry): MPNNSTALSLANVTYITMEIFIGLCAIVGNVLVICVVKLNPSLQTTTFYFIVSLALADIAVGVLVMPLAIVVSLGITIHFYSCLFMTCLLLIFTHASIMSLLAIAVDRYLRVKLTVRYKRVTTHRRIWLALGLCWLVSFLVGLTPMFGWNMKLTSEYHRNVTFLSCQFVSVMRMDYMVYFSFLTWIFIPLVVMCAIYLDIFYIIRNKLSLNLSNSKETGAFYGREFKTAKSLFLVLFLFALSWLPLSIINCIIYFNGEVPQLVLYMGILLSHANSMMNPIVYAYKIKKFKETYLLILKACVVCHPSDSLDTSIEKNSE
# Protocol: Radioligand binding, displacement of [3H]-HEMADO at hA3 AR in CHO cells
# Experimental context: displacement of specific [3H]-HEMADO binding, mean ± SEM
Listed below: Ki values for each entry.
Reply numerically in nM, unit not repeated.

Use the examples below as a reference point.
> print(dat)
                              line.notation  experimental.result
1      Nc1nc(-c2ccco2)nc2sc(Cc3ccccc3F)nc12                 93.1
2   Nc1nc(-c2cccc(O)c2)nc2sc(Cc3ccccc3)nc12                  104
3  N#Cc1cccc(-c2nc(N)c3nc(Cc4ccccc4)sc3n2)c1                   76
4  COc1ccccc1Cc1nc2c(N)nc(-c3cccc(C#N)c3)nc2s1                 54.2
5   Cc1ccc(-c2nc(N)c3nc(Cc4ccccc4F)sc3n2)o1                 50.2

Would you kindly look at the next entry?
[Q] So what does the record say about Ki for COc1ccccc1Cc1nc2c(N)nc(-c3cccc(O)c3)nc2s1 ?
[A] 79.6

* * *

# Target of assay: human A1 AR (Homo sapiens, UniProt P30542)
# Sequence (P30542 whole entry): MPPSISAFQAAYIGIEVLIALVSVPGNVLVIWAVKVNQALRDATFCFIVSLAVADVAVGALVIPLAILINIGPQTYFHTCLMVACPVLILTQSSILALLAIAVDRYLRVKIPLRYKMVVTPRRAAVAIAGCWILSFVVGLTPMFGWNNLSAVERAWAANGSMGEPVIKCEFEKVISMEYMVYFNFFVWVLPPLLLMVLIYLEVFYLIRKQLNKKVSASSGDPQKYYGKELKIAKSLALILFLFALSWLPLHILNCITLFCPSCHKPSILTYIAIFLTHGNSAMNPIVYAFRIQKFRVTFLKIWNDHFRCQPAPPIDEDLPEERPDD
# Protocol: Radioligand binding, displacement of [3H]-CCPA at hA1 AR in CHO cells
# Experimental context: displacement of specific [3H]-CCPA binding, n = 3–6, mean ± SEM
Observation type: Ki (nM)
Reply numerically in nM, unit not repeated.

Use the examples below as a reference point.
> print(dat)
                                   compound  experimental.result
1  COc1ccccc1Cc1nc2c(N)nc(-c3ccc(C)o3)nc2s1 [compound 14]                 11.5
2  Nc1nc(-c2ccccc2)nc2sc(Cc3ccccc3)nc12 [compound 1]                   20
3  Nc1nc(-c2ccccc2)nc2sc(Cc3ccccc3Cl)nc12 [compound 6]                  2.8
4  Nc1nc(-c2ccco2)nc2sc(Cc3ccccc3F)nc12 [compound 18]                  1.9

Would you kindly look at the next entry?
[Q] So what does the record say about Ki for COc1ccccc1Cc1nc2c(N)nc(-c3cccc(O)c3)nc2s1 [compound 12] ?
[A] 10.2

* * *

# Target of assay: hA2B AR (Homo sapiens)
# Construct: expressed in transfected cells; host or cells: CHO cells
# Sequence (P29275 1-332): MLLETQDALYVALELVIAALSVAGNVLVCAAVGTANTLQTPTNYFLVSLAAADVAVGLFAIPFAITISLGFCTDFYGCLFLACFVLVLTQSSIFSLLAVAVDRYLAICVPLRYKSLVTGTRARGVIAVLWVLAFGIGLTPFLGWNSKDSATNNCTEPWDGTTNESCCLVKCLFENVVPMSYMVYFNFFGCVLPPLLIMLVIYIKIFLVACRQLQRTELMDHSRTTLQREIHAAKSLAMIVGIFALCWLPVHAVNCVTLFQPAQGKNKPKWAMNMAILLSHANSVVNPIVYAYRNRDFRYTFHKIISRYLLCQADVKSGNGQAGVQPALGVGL
# Protocol: Inhibition of NECA-stimulated adenylyl cyclase activity (cAMP) in CHO cells expressing hA2B AR
# Type: cell-based
# Experimental context: mean ± SEM
Observation type: IC50 (µM)
Reply numerically in µM, unit not repeated.

Use the examples below as a reference point.
> print(dat)
                              line.notation  measurement.unit  experimental.result
1  N#Cc1cccc(-c2nc(N)c3nc(Cc4ccccc4Cl)sc3n2)c1                µM                 6.79
2     Nc1nc(-c2ccco2)nc2sc(Cc3ccccc3Cl)nc12                µM                 1.89

[Q] So what does the record say about IC50 for COc1ccccc1Cc1nc2c(N)nc(-c3cccc(C#N)c3)nc2s1 ?
[A] 1.54

[Q] So what does the record say about IC50 for COc1ccccc1Cc1nc2c(N)nc(-c3cccc(O)c3)nc2s1 ?
[A] 7.42
